assay: Cytotoxicity against human CEM cells assessed as reduction in cell viability after 6 days by trypan blue exclusion assay; format: cell-based, CCRF-CEM; details: CEM cells
measured_parameter: CC50 at 144 h

Qu. # CC50 at 144 h lookup, item CC(C)OC(=O)[C@H](C)N[P@](=O)(OC[C@H]1O[C@@H](n2ccc(=O)[nH]c2=O)[C@](C)(F)[C@@H]1O)Oc1ccccc1 [SOFOSBUVIR]
Ans. > 100 µM
